These data points were gathered from the supplement of paper PMC10567573.

Measured protein stability index, listed per entry for reference.
B1: RPAIN (parent)
chain: ISEYEKSLQFDEKCLSIMLAEWEA

variants of: B1; assay: protein stability index of a GFP-peptide fusion (GPS, HEK-293T) (PSI 1-6); higher = more stable; details: c terminus: a fixed tail appended;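 also: lentivirally expressed fusions sorted by FACS into six bins by GFP to DsRed ratio, PSI derived from sequencing read proportions per bin multiplied by bin number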

[[record]]
variant_designation = "S16Y"
measure = "protein stability index"
measured_value = 2.83

[[record]]
variant_designation = "E5Q"
measure = "protein stability index"
measured_value = 1.92

[[record]]
variant_designation = "F10A"
measure = "protein stability index"
measured_value = 3.21


Query string: protein stability index lookup needed for L19T , thanks.
Result string: 3.18

Query string: For the variant shown here, L19F , give the reported protein stability index.
Result string: 3.03

Query string: Record request: protein stability index value, item M18P
Result string: 4.27
